Data origin, for the record: patent US5331006A

# pKi per entry
tested_system: CCK receptor sites (Mus musculus, UniProt P56481)
Construct: from tissue; host or cells: cerebral cortex membranes of male CFLP mice
Sequence (P56481 1-453): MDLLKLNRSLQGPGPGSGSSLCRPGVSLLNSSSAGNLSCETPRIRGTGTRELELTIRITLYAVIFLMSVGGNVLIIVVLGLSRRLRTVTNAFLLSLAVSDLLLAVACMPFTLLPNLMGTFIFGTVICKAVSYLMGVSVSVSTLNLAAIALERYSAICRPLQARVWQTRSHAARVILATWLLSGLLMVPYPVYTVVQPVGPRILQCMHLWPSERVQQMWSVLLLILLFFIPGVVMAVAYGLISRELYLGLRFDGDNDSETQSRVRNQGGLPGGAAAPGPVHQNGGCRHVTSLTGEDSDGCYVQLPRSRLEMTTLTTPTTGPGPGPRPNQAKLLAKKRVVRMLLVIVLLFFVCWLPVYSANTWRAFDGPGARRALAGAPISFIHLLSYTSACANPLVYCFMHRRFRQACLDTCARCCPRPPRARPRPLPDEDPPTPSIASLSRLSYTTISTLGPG
experiment_summary: CCK receptor binding, displacement of tritiated pentagastrin from mouse cerebral cortex membranes
experimental_parameters: 2 nM tritiated pentagastrin, mouse cerebral cortical membranes; Ki from IC50 by Cheng-Prusoff; read-out: Ki
pKi: −log10 of the molar value.

molecule: CC(Cc1c(Br)oc2ccccc12)(NC(=O)OC1C2CC3CC(C2)CC1C3)C(=O)NC(CO)Cc1ccccc1 (centres unmarked) [drawing 28 (H H CH2 OH H H)]
pKi: 7.85

molecule: CC(Cc1ccnc2ccccc12)(NC(=O)OC1C2CC3CC(C2)CC1C3)C(=O)NCCc1ccccc1 (centres unmarked) [drawing 40 (H H H H H)]
pKi: 6.58

molecule: CC(Cc1coc2ccccc12)(NC(=O)OC1C2CC3CC(C2)CC1C3)C(=O)NC(CO)Cc1ccccc1 (centres unmarked) [drawing 27 (H H CH2 OH H H)]
pKi: 6.44

molecule: CC(Cc1ccccn1)(NC(=O)OC1C2CC3CC(C2)CC1C3)C(=O)NCCc1ccccc1 (centres unmarked)
pKi: 5.52

molecule: CC(Cc1c(Br)oc2ccccc12)(NC(=O)OC1C2CC3CC(C2)CC1C3)C(=O)NCCc1ccccc1 (centres unmarked) [drawing 28 (H H H H H)]
pKi: 5.89

molecule: Cc1[nH]cc(CC(C)(NC(=O)OC2C3CC4CC(C3)CC2C4)C(=O)NC(CO)C(O)c2ccccc2)c1C (centres unmarked) [drawing 56 (H H CH2 OH H OH)]
pKi: 5.52

molecule: CC(C)COC(=O)OC[C@H](Cc1ccccc1)NC(=O)C(C)(Cc1cccnc1)NC(=O)OC1C2CC3CC(C2)CC1C3 (some centres unmarked) [drawing 32 (H H CH2 OCO2 i-Bu H H)]
pKi: 5.52

molecule: CC(Cc1ccncc1)(NC(=O)OC1C2CC3CC(C2)CC1C3)C(=O)NC(CO)Cc1ccccc1 (centres unmarked) [drawing 61 (Diast I)]
pKi: 6.43

molecule: CC(Cc1cc2c(cn1)[nH]c1ccccc12)(NC(=O)OC1C2CC3CC(C2)CC1C3)C(=O)NC(CO)Cc1ccccc1 (centres unmarked)
pKi: 5.86

molecule: CC(Cc1cccc2ccccc12)(NC(=O)OC1C2CC3CC(C2)CC1C3)C(=O)NC(CO)Cc1ccccc1 (centres unmarked) [drawing 24]
pKi: 6.14

molecule: CC(Cc1cc2c3ccccc3n(S(C)(=O)=O)c2cn1)(NC(=O)OC1C2CC3CC(C2)CC1C3)C(=O)NCCc1ccccc1 (centres unmarked)
pKi: 5.70
